System: anti-Aβ antibodies in sera of vaccinated patients
Assay: Epitope mapping, competitive binding inhibition EIA with patient sera (10-mer peptides, IC50)
Parameters: species or system human
Details: serum 16 wpi of vaccinated patient P201
Recorded Epitope mapping, fine specificity analysis, serum of subject P201 for the following substances
Number, no unit, nothing else.

Recorded Epitope mapping, fine specificity analysis, serum of subject P201, per entry:
29 (HQKLVFFAED; PEPTIDE (1)..(10) Abeta 14-23 or APP 770(H685-D694); listed as Homo sapiens) [compound 29]; 0
12 (SEVKMDAEFR; PEPTIDE (1)..(10) Abeta -5-5 or APP 770(S667-R676); listed as Homo sapiens) [compound 12]; 0

Now let's try a different one.
For the record 24 (GYEVHHQKLV; PEPTIDE (1)..(10) Abeta 9-18 or APP 770(G680-V689); listed as Homo sapiens) [compound 24] , what value of Epitope mapping, fine specificity analysis, serum of subject P201 is listed for anti-Aβ antibodies in sera of vaccinated patients?
0

* * *

Tested on: anti-Aβ antibodies in sera from vaccinated baboons
Assay: Epitope mapping, 10-mer peptide-based ELISA with sera from vaccinated baboons
Details: peptide as plate coating, 10 weeks post immunization
Recorded ELISA Titer titers (Log10) for the following substances
The reply should read as a number followed by its unit.

Recorded ELISA Titer titers (Log10), per entry:
23 (SGYEVHHQKL) [Peptide 23]; 0.49 Log10
9 (EEISEVKMDA) [Peptide 9]; 0.30 Log10
10 (EISEVKMDAE) [Peptide 10]; 0.25 Log10
16 (MDAEFRHDSG) [Peptide 16]; 0.32 Log10

Record request: ELISA Titer titers (Log10) value, item 28 (HHQKLVFFAE) [Peptide 28]
0.22 Log10

Same question, 24 (GYEVHHQKLV) [Peptide 24] this time
0.27 Log10

* * *

Tested on: anti-Aβ antibodies in sera of vaccinated patients
Assay: Epitope mapping, competitive binding inhibition EIA with patient sera (10-mer peptides, IC50)
Set-up: species or system human
Details: serum 16 wpi of vaccinated patient P101
Classification field: rule met = Epitope mapping, fine specificity analysis, serum of subject P101 at or over 1; rule not met = Epitope mapping, fine specificity analysis, serum of subject P101 under 1.

Answered examples (3):
9 (EEISEVKMDA; PEPTIDE (1)..(10) Abeta -8-2 or APP 770(E664-A673); listed as Homo sapiens) [compound 9]; rule not met
10 (EISEVKMDAE; PEPTIDE (1)..(10) Abeta -7-3 or APP 770(E665-E674); listed as Homo sapiens) [compound 10]; rule not met
23 (SGYEVHHQKL; PEPTIDE (1)..(10) Abeta 8-17 or APP 770(S679-L688); listed as Homo sapiens) [compound 23]; rule not met

Check the entry 8 (TEEISEVKMD; PEPTIDE (1)..(10) Abeta -9-1 or APP 770(T663-D672); listed as Homo sapiens) [compound 8] : does Epitope mapping, fine specificity analysis, serum of subject P101 equal or exceed 1?
rule not met

Same question, 25 (YEVHHQKLVF; PEPTIDE (1)..(10) Abeta 10-19 or APP 770(Y681-F690); listed as Homo sapiens) [compound 25] this time
rule not met

Same question, 22 (DSGYEVHHQK; PEPTIDE (1)..(10) Abeta 7-16 or APP 770(D678-K687); listed as Homo sapiens) [compound 22] this time
rule met

Same question, 16 (MDAEFRHDSG; PEPTIDE (1)..(10) Abeta -1-9 or APP 770(M671-G680); listed as Homo sapiens) [compound 16] this time
rule met

Same question, 29 (HQKLVFFAED; PEPTIDE (1)..(10) Abeta 14-23 or APP 770(H685-D694); listed as Homo sapiens) [compound 29] this time
rule not met

* * *

System: anti-Aβ antibodies in sera of vaccinated patients
Experiment: Epitope mapping, competitive binding inhibition EIA with patient sera (10-mer peptides, IC50)
Design: species or system human
Conditions: serum 16 wpi of vaccinated patient P102
Recorded Epitope mapping, fine specificity analysis, serum of subject P102 for the following substances
Number, no unit, nothing else.

14 (VKMDAEFRHD; PEPTIDE (1)..(10) Abeta -3-7 or APP 770(V669-D678); listed as Homo sapiens) [compound 14]; 0

Record request: Epitope mapping, fine specificity analysis, serum of subject P102 value, item 11 (ISEVKMDAEF; PEPTIDE (1)..(10) Abeta -6-4 or APP 770(I666-F675); listed as Homo sapiens) [compound 11]
0

Same question, 10 (EISEVKMDAE; PEPTIDE (1)..(10) Abeta -7-3 or APP 770(E665-E674); listed as Homo sapiens) [compound 10] this time
0

* * *

Recorded Epitope mapping, fine specificity analysis, serum of subject P104 for the following substances
Test system: anti-Aβ antibodies in sera of vaccinated patients
Test: Epitope mapping, competitive binding inhibition EIA with patient sera (10-mer peptides, IC50)
Set-up: species or system human
Conditions: serum 16 wpi of vaccinated patient P104
Number, no unit, nothing else.

9 (EEISEVKMDA; PEPTIDE (1)..(10) Abeta -8-2 or APP 770(E664-A673); listed as Homo sapiens) [compound 9]; 0
30 (QKLVFFAEDV; PEPTIDE (1)..(10) Abeta 15-24 or APP 770(Q686-V695); listed as Homo sapiens) [compound 30]; 0

Now let's try a different one.
Record request: Epitope mapping, fine specificity analysis, serum of subject P104 value, item 21 (HDSGYEVHHQ; PEPTIDE (1)..(10) Abeta 6-15 or APP 770(H677-Q686); listed as Homo sapiens) [compound 21]
0

* * *

Tested on: anti-Aβ antibodies in sera of vaccinated patients
Experiment: Epitope mapping, competitive binding inhibition EIA with patient sera (10-mer peptides, IC50)
Parameters: species or system human
Conditions: serum 16 wpi of vaccinated patient P102
readout: Epitope mapping, fine specificity analysis, serum of subject P102
Number, no unit, nothing else.

Recorded Epitope mapping, fine specificity analysis, serum of subject P102, per entry:
9 (EEISEVKMDA; PEPTIDE (1)..(10) Abeta -8-2 or APP 770(E664-A673); listed as Homo sapiens) [compound 9]; 0
18 (EFRHDSGYEV; PEPTIDE (1)..(10) Abeta 3-12 or APP 770(E674-V683); listed as Homo sapiens) [compound 18]; 0

Record request: Epitope mapping, fine specificity analysis, serum of subject P102 value, item 21 (HDSGYEVHHQ; PEPTIDE (1)..(10) Abeta 6-15 or APP 770(H677-Q686); listed as Homo sapiens) [compound 21]
0

* * *

Recorded Epitope mapping, fine specificity analysis, serum of subject P101 for the following substances
Tested on: anti-Aβ antibodies in sera of vaccinated patients
Test: Epitope mapping, competitive binding inhibition EIA with patient sera (10-mer peptides, IC50)
Parameters: species or system human
Details: serum 16 wpi of vaccinated patient P101
Number, no unit, nothing else.

Recorded Epitope mapping, fine specificity analysis, serum of subject P101, per entry:
14 (VKMDAEFRHD; PEPTIDE (1)..(10) Abeta -3-7 or APP 770(V669-D678); listed as Homo sapiens) [compound 14]; 31
20 (RHDSGYEVHH; PEPTIDE (1)..(10) Abeta 5-14 or APP 770(R676-H685); listed as Homo sapiens) [compound 20]; 0
28 (HHQKLVFFAE; PEPTIDE (1)..(10) Abeta 13-22 or APP 770(H684-E693); listed as Homo sapiens) [compound 28]; 0
30 (QKLVFFAEDV; PEPTIDE (1)..(10) Abeta 15-24 or APP 770(Q686-V695); listed as Homo sapiens) [compound 30]; 0
11 (ISEVKMDAEF; PEPTIDE (1)..(10) Abeta -6-4 or APP 770(I666-F675); listed as Homo sapiens) [compound 11]; 0

Record request: Epitope mapping, fine specificity analysis, serum of subject P101 value, item 21 (HDSGYEVHHQ; PEPTIDE (1)..(10) Abeta 6-15 or APP 770(H677-Q686); listed as Homo sapiens) [compound 21]
0

Same question, 24 (GYEVHHQKLV; PEPTIDE (1)..(10) Abeta 9-18 or APP 770(G680-V689); listed as Homo sapiens) [compound 24] this time
0

Same question, 18 (EFRHDSGYEV; PEPTIDE (1)..(10) Abeta 3-12 or APP 770(E674-V683); listed as Homo sapiens) [compound 18] this time
0

Same question, 12 (SEVKMDAEFR; PEPTIDE (1)..(10) Abeta -5-5 or APP 770(S667-R676); listed as Homo sapiens) [compound 12] this time
10

* * *

Test system: anti-Aβ antibodies in sera of vaccinated patients
Test: Epitope mapping, competitive binding inhibition EIA with patient sera (10-mer peptides, IC50)
Parameters: species or system human
Details: serum 16 wpi of vaccinated patient P108
Recorded Epitope mapping, fine specificity analysis, serum of subject P108 for the following substances

12 (SEVKMDAEFR; PEPTIDE (1)..(10) Abeta -5-5 or APP 770(S667-R676); listed as Homo sapiens) [compound 12]; 0
10 (EISEVKMDAE; PEPTIDE (1)..(10) Abeta -7-3 or APP 770(E665-E674); listed as Homo sapiens) [compound 10]; 0

Now let's try a different one.
For the record 14 (VKMDAEFRHD; PEPTIDE (1)..(10) Abeta -3-7 or APP 770(V669-D678); listed as Homo sapiens) [compound 14] , what value of Epitope mapping, fine specificity analysis, serum of subject P108 is listed for anti-Aβ antibodies in sera of vaccinated patients?
0
